Task for the reader: assign each of the following molecules its reported EC50.
# Test system: MM96L
# ASSAY_NAME: Cytotoxicity against human MM96L cells assessed as increase in intracellular caspase 3/7 release incubated for 72 hrs by Caspase-Glo 3/7 assay
Answers are plain numbers, in nM.

Requested read-out: EC50. Entry: "O=C(NO)c1ccc(NC(=O)C2(c3ccc4ccccc4c3)CCOCC2)cc1"
60

Further cases:
Requested read-out: EC50. Entry: CC(C)C(C(=O)Nc1ccc(C(=O)NO)cc1)c1ccccc1 (racemic)
900

###

Task for the reader: assign each of the following molecules its reported IC50.
# TARGET_UNDER_TEST: Histone deacetylase 8 (Homo sapiens, UniProt Q9BY41)
# Sequence (Q9BY41 whole entry): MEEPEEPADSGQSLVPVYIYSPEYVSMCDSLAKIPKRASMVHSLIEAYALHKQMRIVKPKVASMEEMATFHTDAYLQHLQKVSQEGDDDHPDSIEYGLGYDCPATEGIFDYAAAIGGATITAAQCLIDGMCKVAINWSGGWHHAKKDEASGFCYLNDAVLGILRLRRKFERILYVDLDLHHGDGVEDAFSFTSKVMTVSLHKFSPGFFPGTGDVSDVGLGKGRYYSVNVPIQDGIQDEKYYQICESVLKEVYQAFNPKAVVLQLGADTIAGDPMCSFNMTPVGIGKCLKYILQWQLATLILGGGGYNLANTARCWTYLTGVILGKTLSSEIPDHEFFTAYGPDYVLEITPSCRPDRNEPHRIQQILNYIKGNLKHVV
# ASSAY_NAME: Inhibition of human recombinant HDAC8 pre-incubated for 30 mins before Ac-Leu- Gly-Lys(Ac)-AMC substrate addition and measured after 90 mins by fluorescence based assay
Give bare numbers, in nM.

In the examples that follow, each entry is paired with its recorded IC50.
Entry "O=C(NO)c1ccc(NC(=O)C2(c3c[nH]c(-c4ccccc4)n3)CCCC2)cc1" , system Histone deacetylase 8 (Homo sapiens, UniProt Q9BY41): what IC50 was measured?
41

What would you report for "O=C(O)c1cccc(-c2ccc(C3(C(=O)Nc4ccc(C(=O)NO)cc4)CCCC3)cc2)c1" ?
118

Go through the items and report each one's IC50.
1. O=C(NO)c1ccc(NC(=O)C2(c3ccc4ccccc4c3)CCOCC2)cc1
2. CN(C)c1ccc(C2(C(=O)Nc3ccc(C(=O)NO)cc3)CCCC2)cc1
3. O=C(NO)c1ccc(NC(=O)C2(c3ccc(-c4cn[nH]c4)cc3)CCCCC2)cc1
4. O=C(NO)c1ccc(NC(=O)C2(c3ccc(Br)cc3)CCOCC2)cc1

1. 44
2. 89
3. 69
4. 59

###

# TARGET_UNDER_TEST: Histone deacetylase 1 (Homo sapiens)
# Sequence (Q13547 whole entry): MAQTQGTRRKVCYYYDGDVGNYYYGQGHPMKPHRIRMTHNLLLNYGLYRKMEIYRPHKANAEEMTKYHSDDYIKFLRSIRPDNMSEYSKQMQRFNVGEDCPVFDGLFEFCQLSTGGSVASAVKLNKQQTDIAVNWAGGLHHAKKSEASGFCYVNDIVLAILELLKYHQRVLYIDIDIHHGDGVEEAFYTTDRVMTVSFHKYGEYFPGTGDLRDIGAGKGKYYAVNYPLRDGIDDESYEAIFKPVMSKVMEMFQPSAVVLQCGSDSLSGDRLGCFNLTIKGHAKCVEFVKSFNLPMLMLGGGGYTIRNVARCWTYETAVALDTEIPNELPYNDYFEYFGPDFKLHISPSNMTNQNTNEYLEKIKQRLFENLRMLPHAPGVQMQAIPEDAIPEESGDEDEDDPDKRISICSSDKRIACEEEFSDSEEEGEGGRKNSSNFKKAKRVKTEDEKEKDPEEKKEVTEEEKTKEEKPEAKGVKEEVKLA
# ASSAY_NAME: Inhibition of human recombinant HDAC1 pre-incubated for 30 mins before Ac-Leu- Gly-Lys(Ac)-AMC substrate addition and measured after 90 mins by fluorescence based assay
REPORTED_METRIC: pIC50
Answers are plain numbers, as −log10 of the molar value.

Entry "COc1ccc(C2(C(=O)Nc3ccc(C(=O)NO)cc3)CCCCC2)cc1Br" , system Histone deacetylase 1 (Homo sapiens): what pIC50 was measured?
7.51

What would you report for "CCC(CC)(C(=O)Nc1ccc(C(=O)NO)cc1)c1ccccc1" ?
6.37

What would you report for "O=C(NO)c1ccc(NC(=O)C2(c3ccc(-c4ccc5[nH]ccc5c4)cc3)CCCC2)cc1" ?
8.10

What would you report for "O=C(Cc1ccccc1)Nc1ccc(C(=O)NO)cc1" ?
7.12

What would you report for "O=C(NO)c1ccc(NC(=O)C2(c3csc(-c4ccccc4Oc4ccccc4)n3)CCCC2)cc1" ?
6.37

Go through the items and report each one's pIC50.
1. O=C(NO)c1ccc(NC(=O)C2(c3ccc(Br)cc3)CCCC2)cc1
2. O=C(NO)c1ccc(NC(=O)C2(c3csc(-c4ccccc4)n3)CCCC2)cc1
3. O=C(NO)c1ccc(NC(=O)C2(c3ccc(Cl)c(Cl)c3)CCOCC2)cc1

1. 8.15
2. 7.92
3. 8.22

Go through the items and report each one's pIC50.
1. O=C(NO)c1ccc(NC(=O)C2(c3ccc4ccccc4c3)CCCCC2)cc1
2. O=C(NO)c1ccc(NC(=O)C2(c3ccc4ccccc4c3)CCCC2)cc1
3. CC(C)C(NC(=O)c1ccc(C(=O)NO)cc1)c1ccccc1 (racemic)
4. O=C(NO)c1ccc(NC(=O)C2(c3ccccc3)CCNCC2)cc1
5. O=C(NO)c1ccc(NC(=O)C2(c3ccc(Br)cc3)CCOCC2)cc1
6. O=C(NO)c1ccc(NC(=O)C(c2ccccc2)c2ccccc2)cc1

[7.37, 7.96, 5.67, 7.92, 8.70, 6.60]

Go through the items and report each one's pIC50.
1. O=C(NO)c1ccc(NC(=O)C2(c3ccc(-c4ccc(OCc5ccccc5)nc4)cc3)CCCC2)cc1
2. CCCC(CCC)C(=O)Nc1ccc(C(=O)NO)cc1
3. O=C(NO)c1ccc(NC(=O)C2(c3ccccc3)CCCC2)nc1

6.62
6.13
6.88

Go through the items and report each one's pIC50.
1. O=C(NO)c1ccc(NC(=O)C2(c3ccc(-c4ccccc4)cc3)CCCC2)cc1
2. CC(C)C(C(=O)N(C)c1ccc(C(=O)NO)cc1)c1ccccc1 (racemic)
3. O=C(NO)c1ccc(NC(=O)C2(c3ccc(F)cc3)CCCC2)cc1

[7.80, 6.36, 7.39]

###

# TARGET_UNDER_TEST: UniProt:Q13547
# ASSAY_NAME: Inhibition of human recombinant HDAC1 pre-incubated for 30 mins before Ac-Leu- Gly-Lys(Ac)-AMC substrate addition and measured after 90 mins by fluorescence based assay
Task for the reader: assign each of the following compounds its reported pIC50.
Answers are plain numbers, as −log10 of the molar value.

In the examples that follow, each entry is paired with its recorded pIC50.
Requested read-out: pIC50. Entry: "CC(=O)Nc1cccc(-c2ccc(C3(C(=O)Nc4ccc(C(=O)NO)cc4)CCCC3)cc2)c1"
8.30

What would you report for "COc1ccc(C2(C(=O)Nc3ccc(C(=O)NO)cc3)CCCCC2)cc1-c1cn[nH]c1" ?
8.52

What would you report for "O=C(NO)c1ccc(NC(=O)C2(c3ccccc3)CCOCC2)cc1" ?
7.55

What would you report for "O=C(NO)c1ccc(NC(=O)C2(c3c[nH]c(-c4ccc(Br)cc4)n3)CCCC2)cc1" ?
8.00

What would you report for "COc1ccc(C2(C(=O)Nc3ccc(C(=O)NO)cc3)CCCCC2)cc1-c1cccc(N)c1" ?
8.00

What would you report for "CC(=O)Nc1ccccc1-c1ccc(C2(C(=O)Nc3ccc(C(=O)NO)cc3)CCCC2)cc1" ?
9.03

Go through the items and report each one's pIC50.
1. Cc1[nH]ncc1-c1ccc(C2(C(=O)Nc3ccc(C(=O)NO)cc3)CCCC2)cc1
2. CC(C)C(C(=O)Nc1ccc(C(=O)NO)cc1Cl)c1ccccc1 (racemic)
3. O=C(NO)c1ccc(NC(=O)C2(c3ccccc3)CCCC2)cc1
4. CC(C)C(C(=O)Nc1ccc(C(=O)NO)cn1)c1ccccc1 (stereo not given)

1. 8.30
2. 5.97
3. 7.55
4. 7.66

###

# TARGET_UNDER_TEST: Histone deacetylase 1 (Homo sapiens)
# ASSAY_NAME: Inhibition of HDAC1 in human MM96L cells assessed as activation of histone H4 acetylation at Lys5, Lys8, Lys12 and Lys16 residues by Western blot analysis
REPORTED_METRIC: EC50 (nM)
Answers are plain numbers, in nM.

Entry "O=C(NO)c1ccc(NC(=O)C2(c3ccc(Br)cc3)CCOCC2)cc1" , system Histone deacetylase 1 (Homo sapiens): what EC50 was measured?
600

###

# TARGET_UNDER_TEST: UniProt:Q13547
# ASSAY_NAME: Inhibition of human recombinant HDAC1 pre-incubated for 30 mins before Ac-Leu- Gly-Lys(Ac)-AMC substrate addition and measured after 90 mins by fluorescence based assay
Task for the reader: assign each of the following compounds its reported pIC50.
Answers are plain numbers, as −log10 of the molar value.

Requested read-out: pIC50. Entry: "O=C(NO)c1ccc(NC(=O)C2(c3ccc(-c4cn[nH]c4)cc3)CCCC2)cc1"
8.52

What would you report for CC(C)C(C(=O)Nc1ccc(C(=O)Nc2ccccc2N)cc1)c1ccccc1 (racemic) ?
6.64

What would you report for "CC(=O)Nc1ccc(N)cc1-c1ccc(C2(C(=O)Nc3ccc(C(=O)NO)cc3)CCCCC2)cc1" ?
8.00

Here is the next item to consider.
Requested read-out: pIC50. Entry: "O=C(NO)c1ccc(NC(=O)C2(c3ccc(C(F)(F)F)c(F)c3)CCCC2)cc1"
6.64

###

# Test system: A549
# ASSAY_NAME: Cytotoxicity against human A549 cells assessed as reduction in cell viability incubated for 72 hrs by MTT assay
# STUDY_CONDITIONS: A549, 72 h
Task for the reader: assign each of the following compounds its reported pIC50.
Give bare numbers, as −log10 of the molar value.

Go through the items and report each one's pIC50.
1. CC(C)C(C(=O)Nc1ccc(C(=O)NO)cc1)c1ccccc1 (racemic)
2. O=C(NO)c1ccc(NC(=O)C2(c3ccc4ccccc4c3)CCOCC2)cc1

1. 5.82
2. 7.00
